target: canine serum albumin (canine, UniProt P49822 25-608); assay: binding ELISA, coated albumin, pH 7.4
Sequence (P49822 25-608 limits assumed): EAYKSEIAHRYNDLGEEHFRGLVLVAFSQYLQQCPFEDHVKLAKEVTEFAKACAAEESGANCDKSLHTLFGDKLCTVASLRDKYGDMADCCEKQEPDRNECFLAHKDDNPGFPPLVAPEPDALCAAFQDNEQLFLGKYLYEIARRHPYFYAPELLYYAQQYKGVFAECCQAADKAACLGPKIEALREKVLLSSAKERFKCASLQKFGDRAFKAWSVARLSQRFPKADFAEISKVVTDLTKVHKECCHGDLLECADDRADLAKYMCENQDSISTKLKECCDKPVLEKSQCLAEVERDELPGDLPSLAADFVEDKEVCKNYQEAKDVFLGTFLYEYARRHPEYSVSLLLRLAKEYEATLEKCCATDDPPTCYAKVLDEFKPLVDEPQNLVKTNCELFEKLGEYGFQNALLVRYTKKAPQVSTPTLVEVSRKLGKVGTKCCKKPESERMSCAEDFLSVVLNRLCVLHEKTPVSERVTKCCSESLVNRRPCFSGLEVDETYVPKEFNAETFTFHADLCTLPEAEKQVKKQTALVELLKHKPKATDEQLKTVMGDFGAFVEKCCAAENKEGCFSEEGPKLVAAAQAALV
pEC50: −log10 of the molar value.
quantity: pEC50

HSA-41 (designed binder, also called HSA-41 parent; HSA-41 AH parent) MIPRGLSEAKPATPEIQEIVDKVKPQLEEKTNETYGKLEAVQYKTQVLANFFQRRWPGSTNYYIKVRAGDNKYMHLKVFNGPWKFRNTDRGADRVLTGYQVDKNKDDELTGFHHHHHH: 7.67

(a) HSA-31 (designed binder) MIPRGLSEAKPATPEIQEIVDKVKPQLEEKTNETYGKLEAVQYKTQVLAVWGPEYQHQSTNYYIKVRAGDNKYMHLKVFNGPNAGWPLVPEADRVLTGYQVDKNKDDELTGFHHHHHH
(b) HSA-18 (designed binder, also called HSA-18 monomer) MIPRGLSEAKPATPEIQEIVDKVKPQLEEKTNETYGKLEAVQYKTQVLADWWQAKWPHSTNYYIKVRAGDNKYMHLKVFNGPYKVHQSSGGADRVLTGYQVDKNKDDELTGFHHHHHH
-- ask Recorded pEC50 values differ for a and b ; which one is higher? API: response body contains the label of the selected item.
-- reply a
